measurement_description: log P determination by 19F NMR shake-flask method with internal fluorinated reference (octanol/water)
condition_info: Table SI12
endpoint_name: ΔlogP (exp. logP vs logP lit)

Consider the reported ΔlogP (exp. logP vs logP lit) for these compounds:
compound	experimental_result
OCCC(F)(F)F	+0.02
OCCCCC(F)(F)F	+0.07
CC(O)CC(F)(F)F (stereo not drawn)	+0.01
OCCCC(F)(F)F	+0.01
OC(C(F)(F)F)C(F)(F)F	+0.03

Next item in the queue.
*Q* Read the entry OCC(F)(F)C(F)(F)F and write its reported ΔlogP (exp. logP vs logP lit).
*A* -0.03

----------
measurement_description: log P determination by 19F NMR shake-flask method with internal fluorinated reference (octanol/water)
condition_info: octanol/water, logP, single experiment; mA 120.0 mg, mREF 60.0 mg
endpoint_name: logP
Respond numerically, and do not add a unit to the figure.

*Q* Read the entry OCC(F)(F)C(F)(F)F and write its reported logP.
*A* 1.17
